Kindly state MIC for each of the entries shown.
# Test system: Acinetobacter baumannii
# Method Description: Antimicrobial activity against multidrug-resistant Acinetobacter baumannii ATCC 19606 measured after 18 hrs by broth microdilution method
# Format: functional
# Condition Notes: ATCC 19606 = CIP 70.34 = JCM 6841, 18 h
The answer is to be given in mg/L; state only the numeric part.

Using known records, supply MIC for `C[n+]1c(/C=C/c2cc3ccccc3[nH]2)cc(N2CCCCC2)c2ccccc21.[I-]`
32

Using known records, supply MIC for `O=C(O)c1cn(C2CC2)c2cc(N3CCNCC3)c(F)cc2c1=O`
2

Using known records, supply MIC for `CN[C@H](CC(C)C)C(=O)N[C@H]1C(=O)N[C@@H](CC(N)=O)C(=O)N[C@H]2C(=O)N[C@H]3C(=O)N[C@H](C(=O)N[C@H](C(=O)O)c4cc(O)cc(O)c4-c4cc3ccc4O)[C@H](O)c3ccc(c(Cl)c3)Oc3cc2cc(c3O[C@@H]2O[C@H](CO)[C@@H](O)[C@H](O)[C@H]2O[C@H]2C[C@](C)(N)[C@H](O)[C@H](C)O2)Oc2ccc(cc2Cl)[C@H]1O`
64

Using known records, supply MIC for `C[n+]1c(/C=C/c2c[nH]c3ccccc23)cc(N2CCCCC2)c2ccccc21.[I-]`
16

Using known records, supply MIC for `C[n+]1c(/C=C/c2cc3ccccc3[nH]2)cc(NCCN2CCCCC2)c2ccccc21.[I-]`
64

Using known records, supply MIC for `C[n+]1c(/C=C/c2cc3ccccc3[nH]2)cc(N2CCCC2)c2ccccc21.[I-]`
64

Using known records, supply MIC for `CC1(C)S[C@@H]2[C@H](NC(=O)Cc3ccccc3)C(=O)N2[C@H]1C(=O)O`
64

Using known records, supply MIC for `C[n+]1c(/C=C/c2c[nH]c3ccccc23)cc(N2CCCC2)c2ccccc21.[I-]`
64

Using known records, supply MIC for `CC1CCN(c2cc(/C=C/c3c[nH]c4ccccc34)[n+](C)c3ccccc23)CC1.[I-]`
32
